Origin of the recorded values: the RNAGym collection of RNA variant scans (doi:10.1073/pnas.2313332121)

B1: TPR 5TU (parent)
chain: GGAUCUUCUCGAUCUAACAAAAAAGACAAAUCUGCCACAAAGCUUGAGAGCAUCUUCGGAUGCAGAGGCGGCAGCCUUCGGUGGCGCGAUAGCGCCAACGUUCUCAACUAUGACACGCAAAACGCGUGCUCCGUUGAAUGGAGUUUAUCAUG

Variants of: B1
Assay: polymerase ribozyme fitness, log enrichment relative to wild type (log ratio); higher = more active; in vitro selection for triplet polymerase activity
Variants at the floor of the assay were thinned out.
Observable: polymerase ribozyme fitness (log ratio)

[
  {
    "Mutation Spec": "G34C C87G U90G G92A U148A",
    "Observable": "polymerase ribozyme fitness (log ratio)",
    "Result Value": "≤ -4.2"
  },
  {
    "Mutation Spec": "C96U G100U",
    "Observable": "polymerase ribozyme fitness (log ratio)",
    "Result Value": -3.13
  },
  {
    "Mutation Spec": "A3G C18A C93G C123U C131U",
    "Observable": "polymerase ribozyme fitness (log ratio)",
    "Result Value": -1.32
  },
  {
    "Mutation Spec": "A49C C75U C76A U77G G81U C87U C93U G94A C131G U134G",
    "Observable": "polymerase ribozyme fitness (log ratio)",
    "Result Value": "≤ -4.2"
  },
  {
    "Mutation Spec": "A16C A37U G58A G80U C85G C93G A150G",
    "Observable": "polymerase ribozyme fitness (log ratio)",
    "Result Value": "≤ -4.2"
  },
  {
    "Mutation Spec": "G34C C76A C95U A142C",
    "Observable": "polymerase ribozyme fitness (log ratio)",
    "Result Value": "≤ -4.2"
  },
  {
    "Mutation Spec": "C8U G81A G88A",
    "Observable": "polymerase ribozyme fitness (log ratio)",
    "Result Value": "≤ -4.2"
  },
  {
    "Mutation Spec": "A16C G34U C93U C105U G112A",
    "Observable": "polymerase ribozyme fitness (log ratio)",
    "Result Value": "≤ -4.2"
  },
  {
    "Mutation Spec": "C8G C14A A30C C69U C76G A98U U144G",
    "Observable": "polymerase ribozyme fitness (log ratio)",
    "Result Value": "≤ -4.2"
  },
  {
    "Mutation Spec": "U55G U90G A97G U135G",
    "Observable": "polymerase ribozyme fitness (log ratio)",
    "Result Value": "≤ -4.2"
  },
  {
    "Mutation Spec": "A22G G88A C96U",
    "Observable": "polymerase ribozyme fitness (log ratio)",
    "Result Value": "≤ -4.2"
  },
  {
    "Mutation Spec": "U33C A60U A73U A122G",
    "Observable": "polymerase ribozyme fitness (log ratio)",
    "Result Value": -2.54
  },
  {
    "Mutation Spec": "A91U A115U C118A C131G A138G",
    "Observable": "polymerase ribozyme fitness (log ratio)",
    "Result Value": "≤ -4.2"
  },
  {
    "Mutation Spec": "C76U C87U G140U U146C",
    "Observable": "polymerase ribozyme fitness (log ratio)",
    "Result Value": -3.72
  },
  {
    "Mutation Spec": "C10U G124C U139G U148C",
    "Observable": "polymerase ribozyme fitness (log ratio)",
    "Result Value": "≤ -4.2"
  },
  {
    "Mutation Spec": "A22U A28U U45G G50U C103G",
    "Observable": "polymerase ribozyme fitness (log ratio)",
    "Result Value": "≤ -4.2"
  },
  {
    "Mutation Spec": "G86C C116U",
    "Observable": "polymerase ribozyme fitness (log ratio)",
    "Result Value": -2.44
  },
  {
    "Mutation Spec": "A21G C36G A47C A120C G133A",
    "Observable": "polymerase ribozyme fitness (log ratio)",
    "Result Value": "≤ -4.2"
  },
  {
    "Mutation Spec": "A40U C57G",
    "Observable": "polymerase ribozyme fitness (log ratio)",
    "Result Value": 0.32
  },
  {
    "Mutation Spec": "A20U C93G",
    "Observable": "polymerase ribozyme fitness (log ratio)",
    "Result Value": "≤ -4.2"
  },
  {
    "Mutation Spec": "C14G U77G A97U U111C",
    "Observable": "polymerase ribozyme fitness (log ratio)",
    "Result Value": -4.01
  },
  {
    "Mutation Spec": "C57U C85A G100U A138G",
    "Observable": "polymerase ribozyme fitness (log ratio)",
    "Result Value": "≤ -4.2"
  },
  {
    "Mutation Spec": "U31A C76U C93G",
    "Observable": "polymerase ribozyme fitness (log ratio)",
    "Result Value": -2.71
  },
  {
    "Mutation Spec": "U78C A142G",
    "Observable": "polymerase ribozyme fitness (log ratio)",
    "Result Value": -1.33
  },
  {
    "Mutation Spec": "G84A U109G",
    "Observable": "polymerase ribozyme fitness (log ratio)",
    "Result Value": -1.95
  },
  {
    "Mutation Spec": "C14G A29C U53A C95U C114U G140A",
    "Observable": "polymerase ribozyme fitness (log ratio)",
    "Result Value": -3.68
  },
  {
    "Mutation Spec": "A39C G88C A97G C114G",
    "Observable": "polymerase ribozyme fitness (log ratio)",
    "Result Value": "≤ -4.2"
  },
  {
    "Mutation Spec": "C51A U102A",
    "Observable": "polymerase ribozyme fitness (log ratio)",
    "Result Value": -1.41
  },
  {
    "Mutation Spec": "A40G A47C C57U C85A A115U A119C A122G U144A",
    "Observable": "polymerase ribozyme fitness (log ratio)",
    "Result Value": "≤ -4.2"
  },
  {
    "Mutation Spec": "U33C C54U C96U A107C",
    "Observable": "polymerase ribozyme fitness (log ratio)",
    "Result Value": "≤ -4.2"
  },
  {
    "Mutation Spec": "G59A G94A A150C",
    "Observable": "polymerase ribozyme fitness (log ratio)",
    "Result Value": "≤ -4.2"
  },
  {
    "Mutation Spec": "C27G G67C G141A A147U G152A",
    "Observable": "polymerase ribozyme fitness (log ratio)",
    "Result Value": "≤ -4.2"
  },
  {
    "Mutation Spec": "C32U C38U C69A U78A C99G U101A U127C",
    "Observable": "polymerase ribozyme fitness (log ratio)",
    "Result Value": "≤ -4.2"
  },
  {
    "Mutation Spec": "C76A U77G C95U G100U",
    "Observable": "polymerase ribozyme fitness (log ratio)",
    "Result Value": -4.15
  },
  {
    "Mutation Spec": "A12G C85A",
    "Observable": "polymerase ribozyme fitness (log ratio)",
    "Result Value": -1.31
  },
  {
    "Mutation Spec": "C27A C63A G80C C85G A119C U144A",
    "Observable": "polymerase ribozyme fitness (log ratio)",
    "Result Value": "≤ -4.2"
  },
  {
    "Mutation Spec": "A17G C35U U53A G94A",
    "Observable": "polymerase ribozyme fitness (log ratio)",
    "Result Value": -1.28
  },
  {
    "Mutation Spec": "A49C G70A C75G C93G A97C C116G C118G",
    "Observable": "polymerase ribozyme fitness (log ratio)",
    "Result Value": "≤ -4.2"
  },
  {
    "Mutation Spec": "U56A C95U C96G A110G A119G G152U",
    "Observable": "polymerase ribozyme fitness (log ratio)",
    "Result Value": -4.13
  },
  {
    "Mutation Spec": "U15G A47C C57U C96A C108G",
    "Observable": "polymerase ribozyme fitness (log ratio)",
    "Result Value": "≤ -4.2"
  },
  {
    "Mutation Spec": "A23C A24C U61G A110U",
    "Observable": "polymerase ribozyme fitness (log ratio)",
    "Result Value": "≤ -4.2"
  },
  {
    "Mutation Spec": "C32G C57U C95U A142C U144G",
    "Observable": "polymerase ribozyme fitness (log ratio)",
    "Result Value": "≤ -4.2"
  },
  {
    "Mutation Spec": "G68U",
    "Observable": "polymerase ribozyme fitness (log ratio)",
    "Result Value": -3.71
  },
  {
    "Mutation Spec": "A20U C85G C125A U145C",
    "Observable": "polymerase ribozyme fitness (log ratio)",
    "Result Value": -3.41
  },
  {
    "Mutation Spec": "U9G A19C U55A",
    "Observable": "polymerase ribozyme fitness (log ratio)",
    "Result Value": "≤ -4.2"
  },
  {
    "Mutation Spec": "A16C A17G G58U C87A C93A",
    "Observable": "polymerase ribozyme fitness (log ratio)",
    "Result Value": "≤ -4.2"
  }
]
